- systemName: GlcNAc(b1-3)Gal(b1-4)GlcNAc(b1-3)Gal(b1-4)GlcNAc(b1-3)Gal(b1-4)GlcNAc(b1-2)Man(a1-3)[GlcNAc(b1-3)Gal(b1-4)GlcNAc(b1-3)Gal(b1-4)GlcNAc(b1-3)Gal(b1-4)GlcNAc(b1-2)Man(a1-6)]Man(b1-4)GlcNAc(b1-4)[Fuc(a1-6)]GlcNAc
- testName: glycan array binding signal (z-score within array); higher = stronger binding
- conditionParameters: glycan notation: IUPAC condensed, linker removed
Many of the other results were omitted from the sample, so the strongest signals are more common in it than they were.
Reported glycan array binding signal (z-score) values for the following binders.

binder: Banana lectin (Musa acuminata) (protein) MNGAIKVGAWGGNGGSAFDMGPAYRIISVKIFSGDVVDGVDVTFTYYGKTETRHYGGSGGTPHEIVLQEGEYLVGMAGEVANYHGAVVLGKLGFSTNKKAYGPFGNTGGTPFSLPIAAGKISGFFGRGGKFLDAIGVYLEPLEHHHHHH
glycan array binding signal (z-score): -0.122
//
binder: DC-ASGPR L+GEE (Homo sapiens) (protein) MTRTYENFQYLENKVKVQGFKNGPLPLQSLLQRLRSGPCHLLLSLGLGLLLLVIICVVGFQNSKFQRDLVTLRTDFSNFTSNTVAEIQALTSQGSSLEETIASLKAEVEGFKQERQAGVSELQEHTTQKAHLGHCPHCPSVCVPVHSEMLLRVQQLVQDLKKLTCQVATLNNNGEEASTEGTCCPVNWVEHQDSCYWFSHSGMSWAEAEKYCQLKNAHLVVINSREEQNFVQKYLGSAYTWMGLSDPEGAWKWVDGTDYATGFQNWKPGQPDDWQGHGLGGGEDCAHFHPDGRWNDDVCQRPYHWVCEAGLGQTSQESH
glycan array binding signal (z-score): -0.283
//
binder: Lb MiSSP8 (Laccaria bicolor) (protein) MYFHTLFACATLMLITTAHASPTVINSLDSRKADLNGDVEARHAADWRRDSDWRRDSDWRRDSDWRRDSD
glycan array binding signal (z-score): 2.57
